Emax, IGF-1 (50 ng/ml)-induced proliferation, MCF-7 reference
Target: human Insulin-like growth factor 1 receptor (IGF-1R) (human, UniProt P08069 31-1367)
Sequence (P08069 31-1367 limits assumed): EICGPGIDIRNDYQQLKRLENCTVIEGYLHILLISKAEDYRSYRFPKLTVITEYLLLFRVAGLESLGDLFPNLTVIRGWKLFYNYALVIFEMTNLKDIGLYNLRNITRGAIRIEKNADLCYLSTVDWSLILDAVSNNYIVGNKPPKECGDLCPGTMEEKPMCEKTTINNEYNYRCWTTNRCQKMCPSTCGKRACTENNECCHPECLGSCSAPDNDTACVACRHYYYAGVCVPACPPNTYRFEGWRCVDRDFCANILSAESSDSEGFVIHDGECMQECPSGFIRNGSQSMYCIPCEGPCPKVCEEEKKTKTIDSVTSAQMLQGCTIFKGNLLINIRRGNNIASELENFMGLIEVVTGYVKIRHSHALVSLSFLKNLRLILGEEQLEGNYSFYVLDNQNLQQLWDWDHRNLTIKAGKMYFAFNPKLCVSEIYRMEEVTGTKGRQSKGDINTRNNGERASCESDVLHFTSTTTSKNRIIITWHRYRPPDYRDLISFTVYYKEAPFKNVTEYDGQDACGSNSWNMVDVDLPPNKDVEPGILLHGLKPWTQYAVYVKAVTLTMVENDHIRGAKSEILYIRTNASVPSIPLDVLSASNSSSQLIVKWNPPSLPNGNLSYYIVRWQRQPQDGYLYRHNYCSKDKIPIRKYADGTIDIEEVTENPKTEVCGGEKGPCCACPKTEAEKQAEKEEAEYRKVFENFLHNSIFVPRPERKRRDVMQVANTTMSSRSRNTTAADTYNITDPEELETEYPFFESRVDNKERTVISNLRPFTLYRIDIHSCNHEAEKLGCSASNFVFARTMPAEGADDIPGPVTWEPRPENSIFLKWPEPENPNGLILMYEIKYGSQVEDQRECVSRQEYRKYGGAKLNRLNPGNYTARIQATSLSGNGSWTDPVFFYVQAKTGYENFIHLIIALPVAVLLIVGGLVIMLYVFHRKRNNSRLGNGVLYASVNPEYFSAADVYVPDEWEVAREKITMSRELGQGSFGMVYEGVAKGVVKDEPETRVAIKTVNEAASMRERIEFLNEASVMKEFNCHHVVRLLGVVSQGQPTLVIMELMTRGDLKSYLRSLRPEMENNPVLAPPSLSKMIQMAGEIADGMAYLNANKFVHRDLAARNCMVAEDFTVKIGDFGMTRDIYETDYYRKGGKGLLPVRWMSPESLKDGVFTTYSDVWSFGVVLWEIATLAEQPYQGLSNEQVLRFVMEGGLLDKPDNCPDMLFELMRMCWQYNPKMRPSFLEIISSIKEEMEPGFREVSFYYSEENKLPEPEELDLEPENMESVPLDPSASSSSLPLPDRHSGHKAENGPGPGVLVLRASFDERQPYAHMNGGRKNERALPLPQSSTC
Experiment: cell-based or functional assay
Where no end group is shown, it is not given here. [ ]: non-standard residue; d: D form.
Give just the number in %; leave the unit off.

Recorded results for 4 binders are shown here.
>  <Binder>
[dE][dS][dD][dV][dL][dH][dF][dT][dS][dT] [APG-202]

>  <Result Unit>
%

>  <Meas Value>
20

$$$$
>  <Binder>
ENFLHLLLA [APG-205]

>  <Result Unit>
%

>  <Meas Value>
60

$$$$
>  <Binder>
RTNASVPSI [APG-203]

>  <Result Unit>
%

>  <Meas Value>
45

$$$$
>  <Binder>
[dS][dL][dF][dV][dP][dR][dP][dE][dR][dK] [APG-201]

>  <Result Unit>
%

>  <Meas Value>
20

$$$$

So what does the record say about Emax, IGF-1 (50 ng/ml)-induced proliferation, MCF-7 for KERTVISNLR [APG-206] ?
60
